This collection of values is drawn from ChEMBL document CHEMBL1833924.

- assay.remarks: Inhibition of bovine trypsin
- Set-up: species or system Bos taurus
Reported IC50 values for a set of compounds
quantity: IC50

[[record]]
substance_smiles = "Cc1cc(O)cc2c1C1=C(C(=O)C2=O)C(C)(C)[C@H](C)O1"
quantity = "IC50"
observed_measurement = "> 50 µM"

[[record]]
substance_smiles = "C[C@@H]1OC2=C(C(=O)C(=N)c3c(O)c(O)cc(C=O)c32)C1(C)C"
quantity = "IC50"
observed_measurement = "> 50 µM"

[[record]]
substance_smiles = "Cc1cc(O)c2c3c(c(O)c4c(c13)O[C@@H](C)C4(C)C)NC2=O"
quantity = "IC50"
observed_measurement = "> 50 µM"

